Here the recorded % Remaining (1 h, 37° C.) is given for each entry.
- ASSAY_REMARKS: Mouse plasma stability protocol, up to 1 h (Examples 16-18)
- PARTICULARS: mouse plasma, 1 h, 37° C.
Kindly answer with a numeric value in %, unit omitted.

[[record]]
compound = "CCNC(=O)c1nnc(-c2cc(C(C)C)c(O)cc2O)n1-c1ccc(CN2CCC(C(=O)N3CCC(N(C)C(=O)Oc4ccc5nc6c(c(CC)c5c4)Cn4c-6cc5c(c4=O)COC(=O)C5(O)CC)CC3)CC2)cc1 (stereo not shown)"
measured_value = 74.7

[[record]]
compound = "CCc1c2c(nc3ccc(OC(=O)N(C)CCCCN4CCN(Cc5ccc(-n6c(O)nnc6-c6cc(C(C)C)c(O)cc6O)cc5)CC4)cc13)-c1cc3c(c(=O)n1C2)COC(=O)C3(O)CC (stereo not shown)"
measured_value = 61

[[record]]
compound = "CCc1c2c(nc3ccc(OC(=O)N(C)C4CCN(C(=O)CCn5ccc6cc(-n7c(O)nnc7-c7cc(C(C)C)c(O)cc7O)ccc65)CC4)cc13)-c1cc3c(c(=O)n1C2)COC(=O)C3(O)CC (stereo not shown)"
measured_value = 18.0


Task: Which % Remaining (1 h, 37° C.) value is on record for CCc1c2c(nc3ccc(O)cc13)-c1cc3c(c(=O)n1C2)COC(=O)C3(CC)OC(=O)N(C)CCOCCn1ccc2cc(-n3c(O)nnc3-c3cc(C(C)C)c(O)cc3O)ccc21 (stereo not shown) ?
Output: 95

Task: Which % Remaining (1 h, 37° C.) value is on record for CCc1c2c(nc3ccc(OC(=O)N(C)CCn4ccc5cc(-n6c(O)nnc6-c6cc(C(C)C)c(O)cc6O)ccc54)cc13)-c1cc3c(c(=O)n1C2)COC(=O)C3(O)CC (stereo not shown) ?
Output: 21

Task: Which % Remaining (1 h, 37° C.) value is on record for CCNC(=O)c1nnc(-c2cc(C(C)C)c(O)cc2O)n1-c1ccc(C(=O)N2CCN(C(=O)COC(=O)OC3(CC)C(=O)OCc4c3cc3n(c4=O)Cc4c-3nc3ccc(O)cc3c4CC)CC2)cc1 (stereo not shown) ?
Output: 21.2

Task: Which % Remaining (1 h, 37° C.) value is on record for CCNC(=O)c1nnc(-c2cc(C(C)C)c(O)cc2O)n1-c1ccc(OC2CCN(C(=O)C3CCCCN3C(=O)Oc3ccc4nc5c(c(CC)c4c3)Cn3c-5cc4c(c3=O)COC(=O)[C@]4(O)CC)CC2)cc1 (stereo partly shown) ?
Output: 67.7
